system: SF268; assay: HSA synergy score (Combenefit); higher = more synergy; conditions: exposure time: 72 h
Below, each entry is listed alongside its reported HSA synergy score.
Give a plain numeric answer without units written out.

Check out these entries, answers already filled in.
compound	experimental target	HSA synergy score
Nc1ccn([C@@H]2O[C@H](CO)[C@@H](O)C2(F)F)c(=O)n1 [Gemcitabine] + C=CCc1cccc(/C=N/NC(=O)CN2CCN(Cc3ccccc3)CC2)c1O [PAC-1]	SF268	3.55
Nc1ccn([C@@H]2O[C@H](CO)[C@@H](O)C2(F)F)c(=O)n1 [Gemcitabine] + C[C@@H](Oc1cc(-c2cnn(C3CCNCC3)c2)cnc1N)c1c(Cl)ccc(F)c1Cl [Crizotinib]	SF268	1.93
C[C@@H](Oc1cc(-c2cnn(C3CCNCC3)c2)cnc1N)c1c(Cl)ccc(F)c1Cl [Crizotinib] + Cc1cc([C@@H](C)Nc2ccccc2C(=O)O)c2nc(N3CCOCC3)cc(=O)n2c1 [AZD6482]	SF268	6.69
O=c1[nH]c2ccccc2n1C1CCN(Cc2ccc(-c3[nH]c4cc5ncnc5cc4nc3-c3ccccc3)cc2)CC1 [Akt inhibitor VIII] + N#CC(c1ccnc(NCCc2cccnc2)n1)c1nc2ccccc2s1 [AS601245]	SF268	8.59

Attention now shifts to the item below.
Challenge: Form field: reported HSA synergy score of C#Cc1cccc(Nc2ncnc3cc(OCCOC)c(OCCOC)cc23)c1 [Erlotinib] + CCCCCCCCCCCC1=C(O)C(=O)C=C(O)C1=O [Embelin]
Response given: 4.82
